System: Mus musculus
protocol-details: Anticonvulsant activity in Kunming mouse assessed as reduction in Sc3-MP-induced tonic seizure rate at 300 mg/kg, ip administered 0.5 hrs before Sc3-MP stimulation relative to control
Assay type: functional
Design: scale not given: the % may be the effect or the level left
Listed next: entries and their corresponding Activity.

[
  {
    "input-smiles": "COc1cc(OC)c(OC)cc1/C=C/COC(=O)/C=C/c1ccc(F)cc1",
    "units-of-measure": "%",
    "Activity": 75
  },
  {
    "input-smiles": "COc1cc(OC)c(OC)cc1/C=C/COC(=O)/C=C/c1ccc(Br)cc1",
    "units-of-measure": "%",
    "Activity": 75
  },
  {
    "input-smiles": "COc1ccc(/C=C/C(=O)OC/C=C/c2cc(OC)c(OC)cc2OC)cc1",
    "units-of-measure": "%",
    "Activity": 100
  },
  {
    "input-smiles": "COc1cc(OC)c(OC)cc1/C=C/COC(=O)/C=C/c1cc(OC)c(OC)cc1OC",
    "units-of-measure": "%",
    "Activity": 75
  },
  {
    "input-smiles": "COc1cc(OC)c(/C=C/C(=O)OC/C=C/c2cc(OC)c(OC)cc2OC)c(OC)c1",
    "units-of-measure": "%",
    "Activity": 75
  },
  {
    "input-smiles": "COc1cc(OC)c(OC)cc1/C=C/COC(=O)/C=C/c1ccc(OC)c(OC)c1",
    "units-of-measure": "%",
    "Activity": 75
  },
  {
    "input-smiles": "COc1cc(OC)c(OC)cc1/C=C/COC(=O)/C=C/c1c(OC)cc(OC)c(OC)c1OC",
    "units-of-measure": "%",
    "Activity": 50
  },
  {
    "input-smiles": "COc1cc(OC)c(OC)cc1/C=C/COC(=O)/C=C/c1c(OC)ccc(OC)c1OC",
    "units-of-measure": "%",
    "Activity": 75
  },
  {
    "input-smiles": "COc1cc(OC)c(OC)cc1/C=C/COC(=O)/C=C/c1c(OC)c(OC)cc(OC)c1OC",
    "units-of-measure": "%",
    "Activity": 75
  },
  {
    "input-smiles": "COc1cc(OC)c(OC)cc1/C=C/COC(=O)/C=C/c1ccc(OC)c(OC)c1OC",
    "units-of-measure": "%",
    "Activity": 75
  },
  {
    "input-smiles": "COc1cccc(/C=C/C(=O)OC/C=C/c2cc(OC)c(OC)cc2OC)c1",
    "units-of-measure": "%",
    "Activity": 75
  },
  {
    "input-smiles": "COc1ccccc1/C=C/C(=O)OC/C=C/c1cc(OC)c(OC)cc1OC",
    "units-of-measure": "%",
    "Activity": 100
  },
  {
    "input-smiles": "COc1cc(OC)c(OC)cc1/C=C/COC(=O)/C=C/c1ccccc1Cl",
    "units-of-measure": "%",
    "Activity": 50
  },
  {
    "input-smiles": "COc1cc(OC)c(OC)cc1/C=C/COC(=O)/C=C/c1cc(OC)c(OC)c(OC)c1OC",
    "units-of-measure": "%",
    "Activity": 50
  },
  {
    "input-smiles": "COc1cc(OC)c(OC)cc1/C=C/COC(=O)/C=C/c1ccccc1C(F)(F)F",
    "units-of-measure": "%",
    "Activity": 75
  },
  {
    "input-smiles": "COc1cc(OC)c(OC)cc1/C=C/COC(=O)/C=C/c1ccc(Cl)cc1",
    "units-of-measure": "%",
    "Activity": 50
  },
  {
    "input-smiles": "COc1cc(OC)c(OC)cc1/C=C/COC(=O)/C=C/c1cccc(Br)c1",
    "units-of-measure": "%",
    "Activity": 50
  },
  {
    "input-smiles": "COc1cc(OC)c(OC)cc1/C=C/COC(=O)/C=C/c1cc(OC)c(OC)c(OC)c1",
    "units-of-measure": "%",
    "Activity": 75
  }
]

---

Organism: Homo sapiens
protocol-details: Inhibition of human LDH1 at 0.5 mM using sodium pyruvate as substrate by UV-VIS spectrophotometry method relative to control
Calls of active or inactive are those of the source. The rule behind the calls is not given here.
experimental-endpoint: inhibition

[
  {
    "compound": "COc1cc(OC)c(OC)cc1/C=C/COC(=O)/C=C/c1c(OC)cccc1OC",
    "test-result": "inactive"
  },
  {
    "compound": "COc1ccc(/C=C/C(=O)OC/C=C/c2cc(OC)c(OC)cc2OC)c(OC)c1",
    "test-result": "inactive"
  },
  {
    "compound": "CC(C)(C)C(O)/C=C/c1ccc2c(c1)OCO2 (stereo unspecified) [STIRIPENTOL]",
    "test-result": "inactive"
  },
  {
    "compound": "COc1cc(OC)c(OC)cc1/C=C/COC(=O)/C=C/c1c(OC)ccc(OC)c1OC",
    "test-result": "Active"
  },
  {
    "compound": "COc1cc(OC)c(OC)cc1CCCNC(=O)/C=C/c1cc(OC)c(OC)c(OC)c1",
    "test-result": "< 5%"
  },
  {
    "compound": "COc1cc(OC)c(OC)cc1/C=C/COC(=O)/C=C/c1c(OC)c(OC)cc(OC)c1OC",
    "test-result": "Active"
  },
  {
    "compound": "COc1cc(OC)c(OC)cc1/C=C/COC(=O)/C=C/c1ccc(C(F)(F)F)cc1",
    "test-result": "< 5%"
  },
  {
    "compound": "COc1cc(OC)c(OC)cc1/C=C/COC(=O)/C=C/c1ccccc1F",
    "test-result": "< 5%"
  },
  {
    "compound": "COc1cc(OC)c(OC)cc1/C=C/COC(=O)/C=C/c1cccc(Cl)c1",
    "test-result": "< 5%"
  },
  {
    "compound": "COc1cc(OC)c(OC)cc1/C=C/CNC(=O)/C=C/c1cc(OC)c(OC)c(OC)c1",
    "test-result": "< 5%"
  },
  {
    "compound": "COc1ccc(/C=C/C(=O)OC/C=C/c2cc(OC)c(OC)cc2OC)cc1",
    "test-result": "inactive"
  }
]

---

protocol-details: Volume of distribution at steady state in Sprague-Dawley rat at 20 mg/kg, iv measured upto 480 mins by LC-MS/MS analysis
Type: ADME, organism-based
experimental-parameters: in vivo, read-out: Vdss
experimental-endpoint: Vd (L/kg)

[
  {
    "input-smiles": "COc1cc(OC)c(OC)cc1/C=C/COC(=O)/C=C/c1c(OC)cc(OC)c(OC)c1OC",
    "experimental-endpoint": "Vd",
    "test-result": 2.14
  },
  {
    "input-smiles": "COc1cc(OC)c(OC)cc1/C=C/COC(=O)/C=C/c1cc(OC)c(OC)c(OC)c1OC",
    "experimental-endpoint": "Vd",
    "test-result": 1.98
  }
]

---

protocol-details: Half life in Sprague-Dawley rat at 20 mg/kg, po measured upto 480 mins by LC-MS/MS analysis
Format: ADME, organism-based
experimental-parameters: in vivo
Listed next: entries and their corresponding half-life.
experimental-endpoint: half-life

[
  {
    "input-smiles": "COc1cc(OC)c(OC)cc1/C=C/COC(=O)/C=C/c1c(OC)cc(OC)c(OC)c1OC",
    "test-result": "57.9 min"
  },
  {
    "input-smiles": "COc1cc(OC)c(OC)cc1/C=C/COC(=O)/C=C/c1cc(OC)c(OC)c(OC)c1OC",
    "test-result": "55.8 min"
  }
]

---

protocol-details: Neurotoxicity against ip dosed Kunming mouse assessed as time remained in rod measured at 0.5 hrs by rotarod test
Format: toxicity, organism-based
experimental-parameters: in vivo

[
  {
    "compound": "NC(=O)N1c2ccccc2C=Cc2ccccc21 [CARBAMAZEPINE]",
    "units-of-measure": "µmol/kg",
    "TD50 at 0.5 h": 303
  },
  {
    "compound": "COC[C@@H](NC(C)=O)C(=O)NCc1ccccc1 [LACOSAMIDE]",
    "units-of-measure": "µmol/kg",
    "TD50 at 0.5 h": 135
  }
]

---

protocol-details: Protective index, ratio of TD50 for neurotoxicity against ip dosed Kunming mouse assessed as time remained in rod measured at 0.5 hrs by rotarod test to ED50 for anticonvulsant activity in ip dosed Kunming mouse assessed as reduction in Sc3-MP-induced seizure administered 0.5 hrs before Sc3-MP stimulation
Format: toxicity, organism-based
experimental-parameters: in vivo, read-out: PI

[
  {
    "input-smiles": "COc1cc(OC)c(OC)cc1/C=C/COC(=O)/C=C/c1cc(OC)c(OC)c(OC)c1OC",
    "qualifying-sign": ">",
    "selectivity ratio at 0.5 h": 5.3
  },
  {
    "input-smiles": "COc1cc(OC)c(OC)cc1/C=C/COC(=O)/C=C/c1cccc(Br)c1",
    "qualifying-sign": ">",
    "selectivity ratio at 0.5 h": 4.6
  },
  {
    "input-smiles": "COc1cc(OC)c(OC)cc1/C=C/COC(=O)/C=C/c1ccc(OC)c(OC)c1OC",
    "qualifying-sign": "=",
    "selectivity ratio at 0.5 h": 3.3
  },
  {
    "input-smiles": "COc1cc(OC)c(OC)cc1/C=C/COC(=O)/C=C/c1ccc(Cl)cc1",
    "qualifying-sign": ">",
    "selectivity ratio at 0.5 h": 6.2
  },
  {
    "input-smiles": "COc1cc(OC)c(OC)cc1/C=C/COC(=O)/C=C/c1ccccc1C(F)(F)F",
    "qualifying-sign": "=",
    "selectivity ratio at 0.5 h": 3.3
  },
  {
    "input-smiles": "COc1cc(OC)c(OC)cc1/C=C/COC(=O)/C=C/c1ccccc1Cl",
    "qualifying-sign": ">",
    "selectivity ratio at 0.5 h": 4
  },
  {
    "input-smiles": "COc1cccc(/C=C/C(=O)OC/C=C/c2cc(OC)c(OC)cc2OC)c1",
    "qualifying-sign": ">",
    "selectivity ratio at 0.5 h": 4
  },
  {
    "input-smiles": "COc1cc(OC)c(OC)cc1/C=C/COC(=O)/C=C/c1c(OC)cc(OC)c(OC)c1OC",
    "qualifying-sign": "=",
    "selectivity ratio at 0.5 h": 4.6
  },
  {
    "input-smiles": "COc1cc(OC)c(OC)cc1/C=C/COC(=O)/C=C/c1ccc(OC)c(OC)c1",
    "qualifying-sign": "=",
    "selectivity ratio at 0.5 h": 3.3
  },
  {
    "input-smiles": "COc1cc(OC)c(OC)cc1/C=C/COC(=O)/C=C/c1cc(OC)c(OC)c(OC)c1",
    "qualifying-sign": "=",
    "selectivity ratio at 0.5 h": 3.3
  }
]
